test system: tonic extensor seizure; assay: maximal electroshock test (MES); type: in vivo, mouse (albino male CRS-CD1); conditions: 75 mg/kg, PO, mouse, 4 hr; read-out: % Block (MES Test, mouse)
Some compounds, each annotated with its measured responders at 75 mg/kg.
The reply should contain only the number, in %.

Sample records with responders at 75 mg/kg:
1. CC1(C)O[C@H]2[C@@H]3O[S@@](=O)O[C@@H]3CO[C@@]2(COS(N)(=O)=O)O1 ... 40
2. CC1(C)O[C@H]2[C@@H]3OS(=O)(=O)O[C@@H]3CO[C@@]2(COS(=O)(=O)NCc2ccccc2)O1 ... 100
3. CCC1(CC)O[C@H]2[C@@H]3OS(=O)(=O)O[C@@H]3CO[C@@]2(COS(N)(=O)=O)O1 ... 100
4. CC1(C)O[C@@H]2[C@H]3OS(=O)(=O)O[C@H]3CO[C@]2(COS(N)(=O)=O)O1 ... 80
5. CC1(C)O[C@H]2[C@@H]3OS(=O)(=O)O[C@@H]3CO[C@@]2(COS(=O)(=O)NC2CCCCCCC2)O1 ... 30

In the following, a different compound is considered.
q: Name the reported responders at 75 mg/kg value associated with the compound CCCCCCCCNS(=O)(=O)OC[C@@]12OC[C@H]3OS(=O)(=O)O[C@H]3[C@@H]1OC(C)(C)O2
a: 100
